# System: TBK1;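 also: KINOMEscan kinase panel screen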
# conditionDetails: concentration: 1 μM, replicates: in singlicate; n = 1
Would you kindly list %Inh for each of these molecules?
Give bare numbers, in %.

Observe how each entry below is paired with its result.
{"molecule": "COc1ccc(CNC(=O)NC2CCN(c3ccnc(Nc4cc(OC)c(OC)c(OC)c4)n3)C2)cc1 (stereo not drawn)", "%Inh (%)": 15}
{"molecule": "COC(=O)c1c(-c2ccccc2)c2cc(OC)ccc2c(=O)n1Cc1ccccc1", "%Inh (%)": 0}
{"molecule": "Cc1ccc(NC(=O)Nc2cc(C(C)(C)C)nn2-c2ccccc2)cc1", "%Inh (%)": 0}
{"molecule": "Cc1cccc(-c2nc(C)cc(Nc3ccncc3)n2)n1", "%Inh (%)": 15}
{"molecule": "Cc1nnc(-c2ccc3occ(-c4ccc(S(C)=O)cc4)c3c2)[nH]1 (stereo not drawn)", "%Inh (%)": 0}
{"molecule": "Cl.c1ccc(-c2n[nH]cc2-c2ccnc(-c3ccc(CN4CCOCC4)cc3)c2)nc1", "%Inh (%)": 61}

Return reported %Inh values for all items listed beneath this line.
1. C[C@@H]1CCCCN1c1cc(-c2ccc3c(N)n[nH]c3c2)nc(N)n1
2. COc1ccccc1-c1ccc2c(NC(=O)C3CC3)n[nH]c2n1

[reply]
[24, 26]

[ask] Fill in %Inh for record `Cc1csc(-c2nc(Nc3ccncc3)c3ccccc3n2)n1`
[reply] 37
